Each entry below carries its recorded composite z-score.
Test System: Dihydroorotate dehydrogenase (quinone), mitochondrial (Plasmodium falciparum (isolate 3D7)) (UniProt Q08210)
Sequence (Q08210 whole entry, looked up): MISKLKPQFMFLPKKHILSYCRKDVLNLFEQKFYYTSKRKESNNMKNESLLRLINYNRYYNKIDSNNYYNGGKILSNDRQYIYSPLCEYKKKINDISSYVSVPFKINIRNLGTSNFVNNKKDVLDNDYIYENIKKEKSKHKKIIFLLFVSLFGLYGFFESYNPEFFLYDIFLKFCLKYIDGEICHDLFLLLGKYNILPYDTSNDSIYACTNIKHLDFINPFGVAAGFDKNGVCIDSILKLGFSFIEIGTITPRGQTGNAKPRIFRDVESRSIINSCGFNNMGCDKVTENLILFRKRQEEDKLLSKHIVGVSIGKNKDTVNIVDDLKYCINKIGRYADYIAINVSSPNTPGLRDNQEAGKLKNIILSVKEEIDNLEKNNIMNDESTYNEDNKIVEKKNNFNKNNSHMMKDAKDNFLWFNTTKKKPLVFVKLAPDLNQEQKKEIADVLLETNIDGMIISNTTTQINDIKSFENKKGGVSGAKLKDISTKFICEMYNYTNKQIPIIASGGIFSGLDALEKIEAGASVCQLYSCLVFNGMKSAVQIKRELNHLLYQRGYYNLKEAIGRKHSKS
Assay Protocol: inhibition of P. falciparum DHODH – biochemical, C-terminal His tag, absorbance 600 nm, primary screen (AID 1175);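 note: recombinant parasite enzyme with a five histidine tag at its C terminus; test concentration not given here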
Measurement Parameters: PfDHODH enzyme, DCIP absorbance 600 nm; higher = more signal, called active from +8 up or from −8 down

[
  {
    "Compound": "O=C(NCc1ccccc1)[C@@H]1c2ccccc2C(=O)N(Cc2ccc(OC(F)(F)F)cc2)[C@H]1c1ccc(CO)cc1",
    "composite z-score": -0.197
  },
  {
    "Compound": "CN(C)CCCC[C@@H]1NC(=O)[C@@H]2C[C@H](C(=O)NCCCCCCNC(=O)CS)[C@H](c3ccc(O)cc3)N2C1=O",
    "composite z-score": -0.173
  },
  {
    "Compound": "O=C1O[C@@H](c2ccccc2)[C@@H](c2ccccc2)N2[C@@H](c3ccc(OCCO)cc3)[C@]3(C(=O)Nc4ccc(C#CCCO)cc43)[C@@H](C(=O)O)[C@H]12",
    "composite z-score": -1.25
  },
  {
    "Compound": "C[N+](C)(C)CCCCNC(=O)[C@H]1C[C@H]2C(=O)N[C@@H](Cc3ccccc3)C(=O)N2[C@H]1c1cccc(OCCO)c1",
    "composite z-score": -30.8
  },
  {
    "Compound": "COc1ccc(C(O)C2C=CC3C(=O)NC(=O)C3N2Nc2ccc(Cl)cc2Cl)c2ccccc12 (configuration not stated)",
    "composite z-score": 0.167
  },
  {
    "Compound": "CC1CC/C=C\\[C@H]2OC34C=CCN(c5ccc6ccccc6c5)C(=O)[C@H]3N(C(C)CO)C(=O)[C@@H]4C2C(=O)O1 (some centres not stated)",
    "composite z-score": 0.631
  },
  {
    "Compound": "COc1ccc(C(O)C2C=CC3C(=O)N(c4ccccc4)C(=O)C3N2Nc2ccc([N+](=O)[O-])cc2)c2ccccc12 (configuration not stated)",
    "composite z-score": 0.767
  }
]

* * *

Assay Protocol: hepatitis C replication reporter changes, two-sided – Huh7 cells, luciferase reporter, HCV replication inhibitor project, primary screen (AID 1109);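 note: huh7 hepatoma cells harbouring a luciferase neomycin HCV replicon reporter; luciferase luminescence as measure of HCV replicon replication; test concentration not given here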
Measurement Parameters: Huh7 HCV replicon luciferase reporter, 48 h; higher = more signal
Each entry below carries its recorded z-score.
Quantity Measured: z-score

[
  {
    "Molecule": "C=CCC(OC(C)=O)[C@@H]1[C@@H](N(Cc2ccc(-c3cccc(C(F)(F)F)c3)o2)C(=O)Cc2ccc(F)cc2)c2cc(OCCCO)ccc2N1C(=O)Cc1ccc2ccccc2c1 (some centres undefined)",
    "Result Value": 0.022
  },
  {
    "Molecule": "CCOC(=O)C[C@H]1[C@H](OC(=O)Cc2ccc3c(c2)OCO3)[C@@H](NC(=O)c2ccc3ccccc3n2)c2cc(OCCCO)ccc2N1C(=O)Cc1ccc(OC)cc1",
    "Result Value": -1.39
  },
  {
    "Molecule": "C=CCNC(=O)[C@@H]1[C@H]2C(=O)O[C@H](c3ccccc3)[C@H](c3ccccc3)N2[C@H](c2ccc(OCCO)cc2)[C@@]12C(=O)Nc1ccc(C#CC3(O)CCCCCC3)cc12",
    "Result Value": -2.43
  },
  {
    "Molecule": "Cc1ccc(S[C@]2(C(=O)NC(C)C)CC(=O)N(C3CCCCC3)[C@@H]2c2ccc(CO)cc2I)cc1",
    "Result Value": -2.93
  },
  {
    "Molecule": "NC(=O)N1C(=O)C2C(C1=O)C1C=C(CCCO)C2C(c2ccc(CN3CCCC3)cc2)N1Cc1sc2ccccc2c1Cl (centres undefined)",
    "Result Value": -2.9
  },
  {
    "Molecule": "Cc1ccccc1C(O)C1C=CC2C(=O)N(c3ccccc3)C(=O)C2N1Nc1ccccc1 (centres undefined)",
    "Result Value": 1.31
  },
  {
    "Molecule": "C[N+](C)(C)CCCC[C@@H]1NC(=O)[C@H]2C[C@@H](C(=O)NCCCCCNC(=O)CS)[C@@H](c3cccc(OCCO)c3)N2C1=O",
    "Result Value": -0.709
  },
  {
    "Molecule": "CC1CC/C=C\\[C@H]2OC34C=CCN(c5ccc(Cl)cc5)C(=O)[C@H]3N(CCCCCCO)C(=O)[C@]4(C)C2C(=O)O1 (some centres undefined)",
    "Result Value": -0.0973
  },
  {
    "Molecule": "C=CCC(OC(C)=O)[C@@H]1[C@@H](N(Cc2ccc(-c3ccccc3)cc2)C(=O)c2cccc3ccccc23)c2cc(OCCCO)ccc2N1C(=O)Cc1ccc(OC)cc1 (some centres undefined)",
    "Result Value": -0.235
  },
  {
    "Molecule": "C=C(COC)/C(=C/C[C@@H](OC(C)=O)c1ccccc1OCCO)c1cnc2ccccc2c1",
    "Result Value": -1.95
  },
  {
    "Molecule": "O=C1OCCC=C[C@H]2OC34C=CCN(c5ccc6ccccc6c5)C(=O)[C@H]3N(CCO)C(=O)[C@@H]4C12 (some centres undefined)",
    "Result Value": -0.07
  },
  {
    "Molecule": "O=C1C[C@@](C(=O)NC2CC2)(c2ccc([N+](=O)[O-])cc2)[C@@H](c2ccc(CO)cc2)N1C1CCCCC1",
    "Result Value": -2.02
  },
  {
    "Molecule": "O=C1O[C@H](c2ccccc2)[C@H](c2ccccc2)N2[C@H]1[C@@H](C(=O)O)[C@]1(C(=O)Nc3ccc(C#CCCO)cc31)[C@H]2c1ccc(OCCO)cc1",
    "Result Value": -0.534
  },
  {
    "Molecule": "C=C(COC)C(=O)CC[C@@H](OC(=O)c1ccccc1-c1ccccc1C(=O)O)c1ccc(OCCO)cc1",
    "Result Value": -1.88
  }
]

Recorded values, source PubChem BioAssay.
